# Tested on: HIV-1 (H9/IIIB strain)
# procedure.details: Multiple round HIV-1 infection assay in MT4-GFP cells (wild type cell assay, Viking)
# Assay type: cell-based
# test.conditions: 0% NHS condition; MT4-GFP cells infected with HIV-1 H9/IIIB; inhibition of reproductive ratio R0, ~48 h and ~72 h post-infection; read-out: WILD TYPE CELL ASSAY Viking IP (0% NHS)
# note: boundary value 4 nM maps to NO; IC50 below it maps to YES

• CCN1CN2CC(O)c3c(C(=O)NCc4ccc(F)c(Cl)c4F)c(=O)c(O)c(n32)C1=O (stereo not shown) [Compound 49] = YES
• CCN1C(=O)c2c(O)c(=O)c(C(=O)NCc3ccc(F)cc3)c3n2N(CC3O)C1C (stereo not shown) [Compound 88] = YES
• CCN1C(=O)c2c(O)c(=O)c(C(=O)NCc3ccc(C(F)F)cc3)c3n2N(CC3O)C1C (stereo not shown) [Compound 76] = NO
• CCN1C(=O)c2c(O)c(=O)c(C(=O)NCc3ccc(C(F)(F)F)cc3)c3n2N(CC3O)C1C (stereo not shown) [Compound 80] = NO
• CCC1N(C)C(=O)c2c(O)c(=O)c(C(=O)NCc3ccc(F)cc3F)c3n2N1CC3O (single isomer, unassigned) [Compound 29] = YES
• CN1CN2CC(O)c3c(C(=O)NCc4ccc(F)cc4F)c(=O)c(O)c(n32)C1=O (stereo not shown) = YES
• CCN1C(=O)c2c(O)c(=O)c(C(=O)NCc3ccc(C(F)F)cc3)c3n2N(CC3O)C1C (single isomer, unassigned) [Compound 74] = NO

---

# Tested on: HIV-1 (H9/IIIB strain)
# procedure.details: Multiple round HIV-1 infection assay in MT4-GFP cells (wild type cell assay, Viking)
# Assay type: cell-based
# test.conditions: 0% NHS condition; MT4-GFP cells infected with HIV-1 H9/IIIB; inhibition of reproductive ratio R0, ~48 h and ~72 h post-infection; read-out: WILD TYPE CELL ASSAY Viking IP (0% NHS)
pIC50: −log10 of the molar value.
endpoint: pIC50

* CC1N(C)C(=O)c2c(O)c(=O)c(C(=O)NCc3ccc(F)cc3F)c3n2N1CC3O (stereo not shown) [Compound 16] | 8.72
* CCN1CN2CC(O)c3c(C(=O)NCc4c(F)cc(F)cc4F)c(=O)c(O)c(n32)C1=O (stereo not shown) | 8.54
* CCN1C(=O)c2c(O)c(=O)c(C(=O)NCc3c(F)ccc(Cl)c3F)c3n2N(CC3O)C1C (stereo not shown) [Compound 72] | 8.64
* CCC1N(C)C(=O)c2c(O)c(=O)c(C(=O)NCc3c(F)ccc(Cl)c3F)c3n2N1CC3O (stereo not shown) [Compound 28] | 8.48
* COCCN1CN2CC(O)c3c(C(=O)NCc4cccc(Cl)c4F)c(=O)c(O)c(n32)C1=O (stereo not shown) | 8.72
* CCC1N(C)C(=O)c2c(O)c(=O)c(C(=O)NCc3ccc(F)cc3F)c3n2N1CC3O (stereo not shown) [Compound 32] | 8.60
* CCN1CN2CC(O)c3c(C(=O)NCc4cccc(Cl)c4F)c(=O)c(O)c(n32)C1=O (stereo not shown) [Compound 52] | 8.09
* CN1CN2CC(O)c3c(C(=O)NCc4c(F)ccc(Cl)c4F)c(=O)c(O)c(n32)C1=O (stereo not shown) | 8.72
* CC1N(C)C(=O)c2c(O)c(=O)c(C(=O)NCc3ccc(F)cc3F)c3n2N1CC3O (single isomer, unassigned) [Compound 14] | 8.85
* CN1C(=O)c2c(O)c(=O)c(C(=O)NCc3c(F)ccc(Cl)c3F)c3n2N(CC3O)C12CCOC2 (stereo not shown) [Compound 118] | 8.80
* CCC1N(C)C(=O)c2c(O)c(=O)c(C(=O)NCc3ccc(F)cc3F)c3n2N1CC3O (single isomer, unassigned) [Compound 30] | 8.80
* CCC1N(C)C(=O)c2c(O)c(=O)c(C(=O)NCc3c(F)cc(F)cc3F)c3n2N1CC3O (single isomer, unassigned) [Compound 34] | 8.55
* CCN1C(=O)c2c(O)c(=O)c(C(=O)NCc3ccc(C(F)(F)F)cc3)c3n2N(CC3O)C1C (single isomer, unassigned) [Compound 78] | 7.06
* CN1C(=O)c2c(O)c(=O)c(C(=O)NCc3c(F)ccc(Cl)c3F)c3n2N(CC3O)C12CCOC2 (single isomer, unassigned) [Compound 116] | 8.51
* CCN1C(=O)c2c(O)c(=O)c(C(=O)NCc3c(F)ccc(F)c3F)c3n2N(CC3O)C1C (stereo not shown) [Compound 84] | 8.68
* COCCN1CN2CC(O)c3c(C(=O)NCc4c(F)cc(F)cc4F)c(=O)c(O)c(n32)C1=O (stereo not shown) | 8.43
* CCN1CN2CC(O)c3c(C(=O)NCc4c(F)ccc(F)c4F)c(=O)c(O)c(n32)C1=O (stereo not shown) | 8.64
* CCN1CN2CC(O)c3c(C(=O)NCc4ccc(F)cc4)c(=O)c(O)c(n32)C1=O (stereo not shown) [Compound 61] | 8.72
* CCN1C(=O)c2c(O)c(=O)c(C(=O)NCc3ccc(C(F)(F)F)cc3)c3n2N(CC3O)C1C (stereo not shown) [Compound 79] | 6.99
* CN1C(=O)c2c(O)c(=O)c(C(=O)NCc3ccc(F)cc3F)c3n2N(CC3O)C12CCOC2 (single isomer, unassigned) [Compound 112] | 8.77
* COCCN1CN2CC(O)c3c(C(=O)NCc4ccc(F)c(Cl)c4F)c(=O)c(O)c(n32)C1=O (stereo not shown) | 8.68
* CCN1CN2CC(O)c3c(C(=O)NCc4ccc(F)c(Cl)c4F)c(=O)c(O)c(n32)C1=O (stereo not shown) [Compound 50] | 8.38
* CCC1N(C)C(=O)c2c(O)c(=O)c(C(=O)NCc3c(F)ccc(Cl)c3F)c3n2N1CC3O (single isomer, unassigned) [Compound 26] | 8.47
* CCN1CN2CC(O)c3c(C(=O)NCc4ccc(F)c(F)c4F)c(=O)c(O)c(n32)C1=O (stereo not shown) | 8.55
* CCN1CN2CC(O)c3c(C(=O)NCc4ccccc4F)c(=O)c(O)c(n32)C1=O (stereo not shown) [Compound 64] | 8.23
